Biological target: T1, Soluble CTLA-4-Ig (human, UniProt P16410 36-161, FITC-conjugated in the two-colour FACS assays; unlabelled and detected with FITC goat anti-human IgG in the concentration-dependent assay)
T1 construct: extracellular domain; Bought from R&D Systems; also called sCTLA-4-Ig; CTLA-4-Ig Fc; not shown: Fc portion of human IgG1
T1 sequence (P16410 36-161): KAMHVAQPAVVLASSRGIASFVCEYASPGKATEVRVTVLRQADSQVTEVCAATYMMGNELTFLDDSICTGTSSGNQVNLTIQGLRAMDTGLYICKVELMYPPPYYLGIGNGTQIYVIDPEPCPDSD
Assay: two-colour FACS profile on transfected cells; score of preference for CTLA-4-Ig over CD28-Ig vs WT hB7-1
Task for the reader: assign each of the following binders its reported Binding Score.
Give only the figure.

Ask: Identify the reported Binding Score for the following entry. Round 2 CTLA4BP 5x5-c10 (ligand) VIHVTKEVKEVATLSCGHNVSVEELAQTRIYWQKEKKMVLTMMSGDMNIWPEYKNRTIFDITNNLSIVILALRPSDEGTYECVVLEYEKDAFKREHLAEVTLSVKADFPTPSITDFEIPPSNIRRIICSTSGGFPEPHLFWLENGEELNAISTTVSQDPETELYAVSSKLDFNMTTNHSFMCLIKYGHLRVNQTFNWNTTKQEHFPDNLLPSWAITLISVNGIFVICCLTYCFAPRCRERRRNERLRRESVHPV
Reply: 1

Ask: Identify the reported Binding Score for the following entry. Round 2 CTLA4BP-5x2-2g (ligand) VIHVTKEVKEVATLSCGHNVSVEELAQTRIHWQKEKKMVLTMMSGDMNIWPEYKNRTIFDITNNLSIVILALRPSDEGTYECVVLKYEKDAFKREHLAEVMLSVKADFPTPSITDFEIPTSNIRRIICSTSGGFPEPHLSWLENGEELNAINTTVSQDPETELYTVSSKLDFNMTTNHSFMCLIKYGHLRVNQTFNWNTPKQEHFPDNLLPSWAITLISVNGIFVICCLTYRFAPRCRERKSNERLRRESVRPV
Reply: 2

Ask: Identify the reported Binding Score for the following entry. Round 2 CTLA4 A-F10-1 (ligand) ITPKSVTKRVKETVMLSCDYNTSTEELTSLRIYWQKDSKMVLAILPGKVQVWPEYKNRTITDMNDNPRIVILALRLSDKGTYTCVVQKNENGSFRREHLTSVTLSIRADFPVPTINDLGNPSPNIRRLICSTSGGFPRPHLYWLENGEELNATNTTLSQDPETKLYMISSELDFNMTSNHSFLCLVKYGDLTVSQTLYWQESKPTPSANQHLTWTIIIPVSAFGISVIIAVILTCLTCRNAAIRRQRRENEVEMQSCSQSP
Reply: 1
